In this section we review reported IC50 values for a set of molecules.
- Measurement Target: NR1A/2C NMDA receptor (Rattus norvegicus, UniProt P35439+Q00961)
- Sequence (Q00961 20-1237, other chains not shown): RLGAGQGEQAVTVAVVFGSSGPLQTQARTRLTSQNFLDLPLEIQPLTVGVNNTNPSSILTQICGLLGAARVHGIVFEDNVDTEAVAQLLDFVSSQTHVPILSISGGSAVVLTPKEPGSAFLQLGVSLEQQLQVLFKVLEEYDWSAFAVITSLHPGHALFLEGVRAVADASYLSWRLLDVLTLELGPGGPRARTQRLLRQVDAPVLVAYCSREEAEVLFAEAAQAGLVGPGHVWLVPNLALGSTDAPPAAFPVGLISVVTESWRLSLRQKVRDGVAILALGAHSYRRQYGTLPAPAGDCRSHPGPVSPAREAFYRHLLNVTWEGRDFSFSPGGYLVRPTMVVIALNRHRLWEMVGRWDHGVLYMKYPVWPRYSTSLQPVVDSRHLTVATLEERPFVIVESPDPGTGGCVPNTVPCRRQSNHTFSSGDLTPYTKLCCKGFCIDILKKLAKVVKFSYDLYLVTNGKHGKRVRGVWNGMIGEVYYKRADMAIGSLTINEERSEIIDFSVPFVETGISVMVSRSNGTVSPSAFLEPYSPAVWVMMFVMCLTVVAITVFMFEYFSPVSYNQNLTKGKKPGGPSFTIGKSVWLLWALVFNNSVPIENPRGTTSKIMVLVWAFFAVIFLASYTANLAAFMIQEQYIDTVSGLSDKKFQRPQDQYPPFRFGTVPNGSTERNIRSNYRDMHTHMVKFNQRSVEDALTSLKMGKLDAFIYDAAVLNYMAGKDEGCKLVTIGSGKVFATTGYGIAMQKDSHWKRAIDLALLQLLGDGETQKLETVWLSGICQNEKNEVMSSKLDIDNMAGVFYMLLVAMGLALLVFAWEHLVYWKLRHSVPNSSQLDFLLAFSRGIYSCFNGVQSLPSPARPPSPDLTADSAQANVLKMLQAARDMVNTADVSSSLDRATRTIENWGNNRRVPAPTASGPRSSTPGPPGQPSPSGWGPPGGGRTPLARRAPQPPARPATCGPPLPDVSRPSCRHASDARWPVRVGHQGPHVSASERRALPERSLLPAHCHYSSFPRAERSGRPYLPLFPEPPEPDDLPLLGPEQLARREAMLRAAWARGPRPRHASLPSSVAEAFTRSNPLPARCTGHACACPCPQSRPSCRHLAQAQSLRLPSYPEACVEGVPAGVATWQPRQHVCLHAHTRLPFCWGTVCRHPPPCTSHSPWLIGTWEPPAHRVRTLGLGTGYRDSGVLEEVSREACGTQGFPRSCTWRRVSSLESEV
- Assay Summary: Xenopus oocyte expression system, two-electrode voltage clamp, NR1A/2C
- Type: cell-based
- Measurement Context: cloned NR1A/2C subunits expressed in Xenopus oocytes; inhibition of agonist-evoked membrane current; read-out: 1A/2C IC50
Structures can show the parent of a compound that is named as a salt.

Known IC50 results, listed for orientation:
[
  {
    "Molecule": "CCOC(=O)CCCN1CCC(Cc2ccccc2)CC1 [Ex. 41, hydrobromide salt]",
    "IC50": "> 300 µM"
  },
  {
    "Molecule": "c1ccc(OCCN2CCc3ccccc3C2)cc1 [Ex. 18]",
    "IC50": "> 100 µM"
  },
  {
    "Molecule": "CCCCCCN1CCC(Cc2ccccc2)CC1 [(A), 4-benzyl-1-hexylpiperidine]",
    "IC50": "> 300 µM"
  },
  {
    "Molecule": "C[C@@H](CO)CN1CCC(Cc2ccc(F)cc2)CC1 [Ex. 92, hydrochloride]",
    "IC50": "> 300 µM"
  }
]

Give me measured IC50, please, for this molecule: O=C(c1ccccc1)C1CCN(CCOc2ccccc2)CC1 [Ex. 27, 4-Benzoyl-1-(2-phenoxyethyl)piperidine]
> 300 µM

Give me measured IC50, please, for this molecule: c1ccc(OCCCN2CCc3ccccc3C2)cc1 [Ex. 19]
275 µM

Give me measured IC50, please, for this molecule: CCCCN1CCC(Cc2ccccc2)CC1 [(B), 4-benzyl-1-butylpiperidine]
> 300 µM

Give me measured IC50, please, for this molecule: COC(=O)CCCCN1CCCC(Cc2ccccc2)C1 (stereo not drawn) [Ex. 34]
> 300 µM

---

- Measurement Target: NR1A/2B NMDA receptor (Rattus norvegicus, UniProt P35439+Q00960)
- Sequence (Q00960 27-1482, other chains not shown): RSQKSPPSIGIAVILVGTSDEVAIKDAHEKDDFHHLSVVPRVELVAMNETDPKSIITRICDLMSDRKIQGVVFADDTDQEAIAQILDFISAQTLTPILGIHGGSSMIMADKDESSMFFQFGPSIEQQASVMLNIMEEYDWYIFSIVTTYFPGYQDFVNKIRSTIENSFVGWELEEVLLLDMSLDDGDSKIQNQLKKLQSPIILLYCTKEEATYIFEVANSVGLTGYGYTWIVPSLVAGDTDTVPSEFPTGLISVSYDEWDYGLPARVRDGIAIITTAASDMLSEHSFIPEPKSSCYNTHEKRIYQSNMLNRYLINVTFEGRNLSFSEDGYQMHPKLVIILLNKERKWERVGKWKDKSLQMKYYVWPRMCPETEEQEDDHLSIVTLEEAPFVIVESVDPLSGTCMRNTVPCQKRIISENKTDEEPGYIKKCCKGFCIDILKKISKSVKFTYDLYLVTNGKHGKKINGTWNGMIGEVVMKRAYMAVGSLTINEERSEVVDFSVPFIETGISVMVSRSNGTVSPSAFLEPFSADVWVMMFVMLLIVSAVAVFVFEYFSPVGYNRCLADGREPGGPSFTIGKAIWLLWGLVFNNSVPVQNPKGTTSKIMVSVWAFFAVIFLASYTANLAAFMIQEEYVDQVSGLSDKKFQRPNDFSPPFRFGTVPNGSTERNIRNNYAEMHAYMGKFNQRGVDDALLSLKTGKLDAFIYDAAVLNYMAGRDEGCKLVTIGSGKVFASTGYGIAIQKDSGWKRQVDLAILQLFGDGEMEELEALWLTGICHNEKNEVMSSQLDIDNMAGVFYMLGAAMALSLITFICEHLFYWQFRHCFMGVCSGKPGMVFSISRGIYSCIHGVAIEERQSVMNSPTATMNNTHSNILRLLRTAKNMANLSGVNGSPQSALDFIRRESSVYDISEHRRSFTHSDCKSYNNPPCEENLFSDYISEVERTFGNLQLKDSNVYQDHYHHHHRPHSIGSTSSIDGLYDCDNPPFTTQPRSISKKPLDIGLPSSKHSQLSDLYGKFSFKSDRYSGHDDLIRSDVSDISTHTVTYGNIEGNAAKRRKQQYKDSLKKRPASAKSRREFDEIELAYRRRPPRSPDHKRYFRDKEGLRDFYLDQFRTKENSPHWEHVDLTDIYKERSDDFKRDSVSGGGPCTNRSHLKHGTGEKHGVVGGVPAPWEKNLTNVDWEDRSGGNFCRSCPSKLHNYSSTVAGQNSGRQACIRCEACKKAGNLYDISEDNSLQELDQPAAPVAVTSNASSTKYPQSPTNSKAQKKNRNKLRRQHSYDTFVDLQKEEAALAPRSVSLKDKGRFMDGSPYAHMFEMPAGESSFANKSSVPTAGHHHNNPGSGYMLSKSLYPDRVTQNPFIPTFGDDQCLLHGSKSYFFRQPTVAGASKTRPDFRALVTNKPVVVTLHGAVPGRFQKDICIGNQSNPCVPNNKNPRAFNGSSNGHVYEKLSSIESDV
- Assay Summary: Xenopus oocyte expression system, two-electrode voltage clamp, NR1A/2B
- Type: cell-based
- Excerpt: Electrophysiological assays may be utilized to characterize the actions of potential subtype-selective ligands at NMDA receptors expressed in Xenopus oocytes. […]
Counter-ions that a name gives are not always drawn.
In this section we review reported pIC50 values for a set of compounds.
pIC50 is a log-scale quantity: -log10 of the concentration expressed in molar.

Known pIC50 results, listed for orientation:
[
  {
    "Compound": "CC(C)(O)CCN1CCC(Cc2ccccc2)CC1.Cl [Ex. 102, hydrochloride]",
    "pIC50": 5.46
  },
  {
    "Compound": "CC(O)CCN1CCC(Cc2ccccc2)CC1.Cl (stereo not drawn) [Ex. 100, hydrochloride]",
    "pIC50": 5.52
  }
]

# next compound below
Give me measured pIC50, please, for this compound: C=CCN1CCCCC1Cc1ccccc1 (stereo not drawn) [Ex. 38(A), 1-Allyl-2-benzylpiperidine, hydrobromide]
4.14

---

In this section we review reported melting point values for a set of compounds.
Structures can show the parent of a compound that is named as a salt.

[
  {
    "Compound": "OCCCCN1CCC(Cc2ccccc2)CC1 (as salt: hydrobromid) [Ex. 86, hydrobromide]",
    "melting point": "129 to 130 °C"
  }
]

# next compound below
Give me measured melting point, please, for this compound: c1ccc(OCCN2CCc3ccccc3C2)cc1 (as salt: hydrochloride)
181 to 182 °C

---

In this section we review reported IC50 values for a set of compounds.
- Measurement Target: NR1A/2A NMDA receptor (Rattus norvegicus, UniProt P35439+Q00959)
- Sequence (Q00959 20-1464 limits assumed, other chains not shown): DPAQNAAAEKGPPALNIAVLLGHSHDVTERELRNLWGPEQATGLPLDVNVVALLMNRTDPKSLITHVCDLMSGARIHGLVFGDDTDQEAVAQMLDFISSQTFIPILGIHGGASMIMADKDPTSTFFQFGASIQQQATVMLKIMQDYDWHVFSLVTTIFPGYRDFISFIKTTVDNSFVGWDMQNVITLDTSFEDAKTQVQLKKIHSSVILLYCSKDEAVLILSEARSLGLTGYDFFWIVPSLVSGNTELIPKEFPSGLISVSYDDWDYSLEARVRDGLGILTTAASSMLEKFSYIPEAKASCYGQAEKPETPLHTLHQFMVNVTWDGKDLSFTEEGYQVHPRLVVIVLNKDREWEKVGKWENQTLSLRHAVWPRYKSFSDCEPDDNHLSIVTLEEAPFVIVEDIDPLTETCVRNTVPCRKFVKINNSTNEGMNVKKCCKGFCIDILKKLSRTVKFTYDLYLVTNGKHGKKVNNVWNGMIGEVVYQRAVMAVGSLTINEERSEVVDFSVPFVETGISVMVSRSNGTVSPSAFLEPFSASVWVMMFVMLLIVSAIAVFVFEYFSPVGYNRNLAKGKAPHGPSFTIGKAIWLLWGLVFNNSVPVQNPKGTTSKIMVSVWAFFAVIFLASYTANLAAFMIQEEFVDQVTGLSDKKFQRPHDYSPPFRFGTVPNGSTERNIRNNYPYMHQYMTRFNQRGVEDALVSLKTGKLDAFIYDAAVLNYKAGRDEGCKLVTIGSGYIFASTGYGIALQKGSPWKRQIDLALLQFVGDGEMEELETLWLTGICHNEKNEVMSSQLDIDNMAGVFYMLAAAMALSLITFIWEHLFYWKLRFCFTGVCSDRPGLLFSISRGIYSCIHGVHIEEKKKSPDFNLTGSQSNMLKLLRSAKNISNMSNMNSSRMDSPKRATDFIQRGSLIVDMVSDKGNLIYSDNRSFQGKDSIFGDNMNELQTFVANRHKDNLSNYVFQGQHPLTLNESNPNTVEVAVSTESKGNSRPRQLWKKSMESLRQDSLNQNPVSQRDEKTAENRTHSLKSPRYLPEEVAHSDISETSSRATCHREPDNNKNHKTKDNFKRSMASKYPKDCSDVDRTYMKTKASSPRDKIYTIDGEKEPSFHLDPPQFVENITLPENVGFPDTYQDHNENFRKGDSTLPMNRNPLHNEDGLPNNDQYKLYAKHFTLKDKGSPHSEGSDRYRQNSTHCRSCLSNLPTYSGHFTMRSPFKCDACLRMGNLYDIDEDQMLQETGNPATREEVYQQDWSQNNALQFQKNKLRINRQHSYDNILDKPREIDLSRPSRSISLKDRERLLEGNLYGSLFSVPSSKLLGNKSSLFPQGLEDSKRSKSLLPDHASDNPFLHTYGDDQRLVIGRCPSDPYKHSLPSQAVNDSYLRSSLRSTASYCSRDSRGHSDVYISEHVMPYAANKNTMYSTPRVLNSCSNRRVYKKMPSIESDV
- Assay Summary: Xenopus oocyte expression system, two-electrode voltage clamp, NR1A/2A
- Type: cell-based
- Measurement Context: cloned NR1A/2A subunits expressed in Xenopus oocytes; inhibition of agonist-evoked membrane current; read-out: 1A/2A IC50
Entry rule: numbers only, all in µM.

Known IC50 results, listed for orientation:
[
  {
    "Compound": "c1ccc(OCCN2CCc3ccccc3C2)cc1 [Ex. 18]",
    "Numeric Result": 140
  },
  {
    "Compound": "O=C(Nc1ccc([N+](=O)[O-])cc1)N1CCC(Cc2ccccc2)CC1 [Ex. 30]",
    "Numeric Result": 95
  },
  {
    "Compound": "O=c1[nH]c2ccc(OCCCN3CCc4ccccc4C3)cc2[nH]1 [Ex. 108]",
    "Numeric Result": 24
  }
]

Give me measured IC50, please, for this compound: C=CC[N+]1(CC=C)CCCCC1Cc1ccccc1 (stereo not drawn) [Ex. 38(B), 2-benzyl-l,1-diallylpiperidinium iodide]
28

---

- Measurement Target: NR1A/2C NMDA receptor (Rattus norvegicus, UniProt P35439+Q00961)
- Assay Summary: Xenopus oocyte expression system, two-electrode voltage clamp, NR1A/2C
- Assay type: cell-based
- Source text: Electrophysiological assays may be utilized to characterize the actions of potential subtype-selective ligands at NMDA receptors expressed in Xenopus oocytes. […]
Where a name gives a salt, the structure may show the parent alone.
Recorded Metric: IC50

Known IC50 results, listed for orientation:
[
  {
    "Compound": "CC(C)(O)CCN1CCC(Cc2ccccc2)CC1.Cl [Ex. 102, hydrochloride]",
    "IC50": "> 300 µM"
  },
  {
    "Compound": "CC(O)CCN1CCC(Cc2ccccc2)CC1.Cl (stereo not drawn) [Ex. 100, hydrochloride]",
    "IC50": "> 300 µM"
  }
]

# next compound below
Give me measured IC50, please, for this compound: C=CCN1CCCCC1Cc1ccccc1 (stereo not drawn) [Ex. 38(A), 1-Allyl-2-benzylpiperidine, hydrobromide]
65 µM

---

- Measurement Target: NR1A/2A NMDA receptor (Rattus norvegicus, UniProt P35439+Q00959)
- Assay Summary: Xenopus oocyte expression system, two-electrode voltage clamp, NR1A/2A
- Type: cell-based
- Measurement Context: cloned NR1A/2A subunits expressed in Xenopus oocytes; inhibition of agonist-evoked membrane current; read-out: 1A/2A IC50
In this section we review reported pIC50 values for a set of molecules.
pIC50 is a log-scale quantity: -log10 of the concentration expressed in molar.

Give me measured pIC50, please, for this molecule: Fc1cccc(C=C2CCN(Cc3ccccc3)CC2)c1 [Ex. 9]
3.62

Give me measured pIC50, please, for this molecule: Cl.Oc1ccc(OCCN2CCC(C[C@]34C[C@H]5C[C@H](C[C@H](C5)C3)C4)CC2)cc1 [Ex. 107]
3.60

Give me measured pIC50, please, for this molecule: Br.Fc1ccc(OCCNN2CCC(Cc3ccc(Cl)cc3)CC2)cc1 [Ex. 106, hydrobromide]
5.07

Give me measured pIC50, please, for this molecule: O=C(CCCN1CCC(O)CC1)c1ccccc1 [Ex. 13, 4-(4-Hydroxypiperidinyl) butyrophenone]
4.10

---

Structures can show the parent of a compound that is named as a salt.
In this section we review reported melting point values for a set of molecules.

Known melting point results, listed for orientation:
[
  {
    "Molecule": "Br.Clc1ccc(CCN2CCCC(Cc3ccccc3)C2)cc1 (stereo not shown)",
    "Result": "143 to 145 °C"
  },
  {
    "Molecule": "Cc1ccc(CC2CCN(CCC(C)O)CC2)cc1.Cl (stereo not shown)",
    "Result": "134 to 136 °C"
  }
]

Give me measured melting point, please, for this molecule: Br.FC(F)(F)c1cccc(CCN2CCCC(Cc3ccccc3)C2)c1 (stereo not shown)
152 to 154 °C

Give me measured melting point, please, for this molecule: `CC(C)(O)CCN1CCC(Cc2ccccc2)CC1.Cl`
136 to 138 °C

Give me measured melting point, please, for this molecule: Clc1ccc(CC2CCN(C3CCc4ccccc4C3)CC2)cc1 (stereo not shown) (as salt: hydrochloride)
243 to 245 °C (dec.)

Give me measured melting point, please, for this molecule: OCCCN1CCC(Cc2ccc(F)cc2)CC1 (as salt: hydrobromid) [Ex. 90, hydrobromide]
108 to 110 °C

Give me measured melting point, please, for this molecule: OCCN1CCC(Cc2ccccc2)CC1 [Ex. 82, 4-Benzyl-1-(2-hydroxyethyl)piperidine]
62 to 64 °C

Give me measured melting point, please, for this molecule: OC1(Cc2ccccc2)CCN(CCCc2ccccc2)CC1 (as salt: hydrochloride)
156 to 157 °C

Give me measured melting point, please, for this molecule: CC(O)CCN1CCC(Cc2ccc(N)cc2)CC1 (stereo not shown) (as salt: hydrochloride)
155 to 160 °C

Give me measured melting point, please, for this molecule: C[C@@H](CO)CN1CCC(Cc2ccc(F)cc2)CC1 (as salt: hydrochloride)
128 to 130 °C

---

- Measurement Target: NR1A/2B NMDA receptor (Rattus norvegicus, UniProt P35439+Q00960)
- Assay Summary: Xenopus oocyte expression system, two-electrode voltage clamp, NR1A/2B
- Assay type: cell-based
- Measurement Context: cloned NR1A/2B subunits expressed in Xenopus oocytes; inhibition of agonist-evoked membrane current; read-out: 1A/2B IC50
Where a name gives a salt, the structure may show the parent alone.
In this section we review reported IC50 values for a set of compounds.
Entry rule: numbers only, all in µM.

Known IC50 results, listed for orientation:
[
  {
    "Compound": "OCCCN1CCC(Cc2ccc(F)cc2)CC1 [Ex. 90, hydrobromide]",
    "Numeric Result": 1.3
  },
  {
    "Compound": "CC(O)CCN1CCC(Cc2ccc(Cl)cc2)CC1.Cl (centres unmarked) [Ex. 99, hydrochloride]",
    "Numeric Result": 1.6
  },
  {
    "Compound": "O=C(Nc1ccc([N+](=O)[O-])cc1)N1CCC(Cc2ccccc2)CC1",
    "Numeric Result": 8
  },
  {
    "Compound": "O=c1[nH]c2ccc(OCCN3CCc4ccccc4C3)cc2[nH]1",
    "Numeric Result": 140
  },
  {
    "Compound": "CCOC(=O)CCCN1CCCC(Cc2ccccc2)C1 (centres unmarked)",
    "Numeric Result": 150
  },
  {
    "Compound": "Cc1ccc(CC2CCN(CCC(C)O)CC2)cc1.Cl (centres unmarked) [Ex. 104, hydrochloride]",
    "Numeric Result": 0.8
  }
]

Give me measured IC50, please, for this compound: OCCCCN1CCC(Cc2ccccc2)CC1 [Ex. 86, hydrobromide]
12

Give me measured IC50, please, for this compound: `Fc1cccc(C=C2CCN(Cc3ccccc3)CC2)c1`
14

Give me measured IC50, please, for this compound: OCCCN1CCC(Cc2ccccc2)CC1 [Ex. 83, hydrobromide]
1.8

Give me measured IC50, please, for this compound: Oc1ccc(CCNC2=NCC(Cc3ccccc3)CN2)cc1 (centres unmarked)
0.2

Give me measured IC50, please, for this compound: `c1ccc(CCCN2CCc3c([nH]c4ccccc34)C2)cc1`
15

Give me measured IC50, please, for this compound: OCC(O)CN1CCC(Cc2ccccc2)CC1 (centres unmarked)
6

Give me measured IC50, please, for this compound: `OC1(Cc2ccccc2)CCN(CCCc2ccccc2)CC1`
17

Give me measured IC50, please, for this compound: NC(=O)CCCCN1CCC(Cc2ccccc2)CC1 [Ex. 2, 4-Benzylpiperidylpentamide]
1.6

Give me measured IC50, please, for this compound: CC(O)CCN1CCC(Cc2ccc([N+](=O)[O-])cc2)CC1.Cl (centres unmarked) [Ex. 101, hydrochloride]
280

Give me measured IC50, please, for this compound: CC(CCO)N1CCC(Cc2ccccc2)CC1 (centres unmarked)
6

Give me measured IC50, please, for this compound: CC(O)CCN1CCC(Cc2ccc(N)cc2)CC1 (centres unmarked) [Ex. 105, hydrochloride]
17

Give me measured IC50, please, for this compound: `O=c1[nH]c2ccc(OCCCN3CCc4ccccc4C3)cc2[nH]1`
7.5

Give me measured IC50, please, for this compound: OCCCN1CCC(Cc2ccc(Cl)cc2)CC1 [Ex. 89, hydrobromide]
0.3
